- System: ATF4 pathway
- PROTOCOL_DESCRIPTION: ATF4 Cell Based Assay (ATF4 reporter assay, NanoLuc luciferase)
- SETUP_CONDITIONS: SH-SY5Y-ATF4-NanoLuc cells challenged with Thapsigargin for 14-18 hours; average of two or more experimental runs; read-out: average ATF4 pathway inhibitory activity (IC50)
pIC50: −log10 of the molar value. Counter-ions that a name gives are not always drawn.
PROPERTY_LABEL: pIC50

COMPOUND	PROPERTY_LABEL	RECORDED_NUMBER
O=C(COc1ccc(Cl)cc1)NC12CC(NC(=O)C3CCCN3)(C1)C2 (stereo not shown) [Example 53, hydrochloride]	pIC50	5.47
O=C(COc1ccc(Cl)cc1)NC12CC(NC(=O)C3CCC3)(C1)C2	pIC50	5.49
Cc1ccc(OCC(=O)NC23CC(NC(=O)COC4(C)CC4)(C2)C3)cc1	pIC50	5.20
O=C(COc1ccc(Cl)cc1)NC12CC(NC(=O)C3CCCO3)(C1)C2 (stereo not shown)	pIC50	5.32
